Assay: Toxicity liver stage against HepG2, at 10uM
Format: cell-based
Parameters: test concentration 10 uM, cell line HepG2-A16-CD81EGFP
Conditions: human, HepG2-A16-CD81EGFP cells; read-out: INHIBITION
REPORTED_METRIC: cytotoxicity at 10 µM (%)

CCN1CCOC(CNCc2ccccc2OCc2ccncc2)C1 (stereo unspecified)
-8.57
CCS(=O)(=O)N1CCC2(CC1)COC(COc1cccnc1)C2 (stereo unspecified)
10.6
CCOC(=O)c1cc2c(=O)[nH]c(=O)n(CCc3ccccc3)c2nc1C
-6.28
CC(C)N(C)Cc1ncn2c1CN(C(=O)C1CCCO1)CCC2 (stereo unspecified)
-103
CCS(=O)(=O)CCNc1nc(C2CCCC2)nc2c1cnn2C
9.35
CC1CCN(CCNC(=O)c2ccn(-c3ccc(F)cc3)n2)CC1
-15.6
CN(C)CC(=O)N1Cc2cc(-c3cc[nH]n3)ccc2C1c1cnco1 (stereo unspecified)
21.4
COc1ccc(-c2nnc(C(C)N3CCC4(CC3)OCCO4)o2)cc1 (stereo unspecified)
12.5
COCCN1CCN(C(=O)c2ccncc2F)Cc2cccnc21
10
Cc1nccn1CCC1CCN(C2CCC3(CCNCC3)CC2)CC1
-1.43
CN(C)c1nc2sc(C(=O)N3CCNC(=O)CC3)cc2s1
-10.1

====

Assay: Toxicity liver stage against HepG2, at 10uM
Format: cell-based
Set-up: test concentration 10 uM, cell line HepG2-A16-CD81EGFP
Conditions: human, HepG2-A16-CD81EGFP cells; read-out: INHIBITION
REPORTED_METRIC: cytotoxicity at 10 µM (%)

CCn1nc(C)cc1C(=O)N1C[C@@H]2C[C@@H](c3nnc(C)[nH]3)O[C@@H]2C1
-1.87
COc1ccccc1C1CNC(=O)c2nc(-c3cnn(C)c3)[nH]c2C1 (stereo unspecified)
-5.33
CCc1ccc(NC(=O)C(C)Nc2cccc3c2OCCO3)cc1 (stereo unspecified)
0.788
COc1ccc(CN2CCn3cc(CNC(=O)CC4CC4)nc3C2)cc1
-82.6
COc1ccc(CN2CCC3(CCCN(c4ncc(F)cn4)C3)C2)cc1 (stereo unspecified)
62.8
CC(C)(C)c1nnnn1CC(=O)N(CCC#N)c1ccccc1
-14.2
CC(C)(C(=O)N1CCCC(OCc2cccnc2)C1)n1cccc1 (stereo unspecified)
-4.06
Cc1n[nH]c(C)c1S(=O)(=O)N1CCC(Oc2ccccc2F)CC1
1.22
CCOC1CCCN(C(=O)c2[nH]nc(C(C)C)c2Br)C1 (stereo unspecified)
-6.78
Nc1nc(Sc2cccs2)cc(N2CC[C@H](CO)[C@H](O)C2)n1
2.68
COc1ncccc1CN1CCN(c2noc(C(C)C)n2)CC1
10.5

====

Listed below: cytotoxicity at 10 µM values for each entry.
Experiment: Toxicity liver stage against HepG2, at 10uM
Type: cell-based
Set-up: test concentration 10 uM, cell line HepG2-A16-CD81EGFP
Conditions: human, HepG2-A16-CD81EGFP cells; read-out: INHIBITION
REPORTED_METRIC: cytotoxicity at 10 µM

N#CCCN(CC1CC1)Cn1cc(Cl)cn1
4.03%
CCC(NCc1ncc[nH]1)c1nc(C(F)(F)F)cs1 (configuration not stated)
8.02%
COCc1cccc(C(=O)N2CCCCC2c2nccs2)c1 (configuration not stated)
-2.06%
O=C(c1cc(=O)n(-c2ccccc2)[nH]1)N1CCOCC(O)C1 (configuration not stated)
-0.205%
Cc1nn(C)c(Cl)c1C1CCCN1Cc1ccc(C(N)=O)cc1 (configuration not stated)
-3.69%
O=C(Nc1ccc(F)cc1)C1CCN(Cc2noc(C3CC3)n2)CC1
4.05%
Cc1cc(C2CCCN(CCS(=O)(=O)c3ccccc3)C2)n[nH]1 (configuration not stated)
-16.7%
Cn1cc(NC(=O)N2CCCC2c2ccccn2)ccc1=O (configuration not stated)
-3.83%
CCn1c(N)nc2cc(C(=O)N3CCC(N4CCCC4)CC3)cnc21
-1.56%
CCN1CCN(C(=O)c2ccn(C)c(=O)c2)CC1
8.66%
O=C(c1ncoc1C1CC1)N1CCCN(CCCc2ccccc2)CC1
-2.78%
Cc1nc(CN2CCN(C(=O)CCc3ccco3)CC2)cs1
-4.39%

====

Listed below: cytotoxicity at 10 µM values for each entry.
Experiment: Toxicity liver stage against HepG2, at 10uM
Type: cell-based
Set-up: test concentration 10 uM, cell line HepG2-A16-CD81EGFP
Details: human, HepG2-A16-CD81EGFP cells; read-out: INHIBITION
REPORTED_METRIC: cytotoxicity at 10 µM (%)

CCc1cccc(OCCn2cccc(C#N)c2=O)c1
9.04
Cc1ccc(N2C[C@@H]3CN(Cc4csc(C)n4)CCO[C@@H]3C2)nn1
7.64
CN(C)C(=O)c1ccc(CNc2c(Cl)cccc2C#N)cc1
-50.6
CN1CCN(c2ccc(NCc3ccsc3)cn2)CC1
2.97
O=C1N(CCCc2ccccc2)CCCC12CCN(C(CO)CO)C2 (stereo not given)
-4.14
O=C1NCCCCC1SCc1coc(-c2cccc(F)c2)n1 (stereo not given)
7
Cc1nnc(NC(=O)NCc2ccc(N3CCC(C)CC3)nc2)s1
-1.36
O=C(Cn1cnc2sccc2c1=O)NCCc1nnc2ccccn12
3.57
COc1ccc(-c2nc(CC(=O)N(C)CCC#N)cs2)cc1OC
0.19
COCc1cnc2n1CCN(C(=O)c1ccc3ccccc3n1)C2C (stereo not given)
-112
CC(C)c1ccc(C#N)c(N2CC(C)(C)[C@@](C)(O)C2)n1
2.71
CCC(=O)N1CCC(NC2CCCC2)C1 (stereo not given)
-4.26
O=C(NCCCn1ccnc1)N1CCCC1c1ccncc1 (stereo not given)
25.4
COc1ccc(CN2CCCC2)cc1Oc1ccc(NC(C)=O)cc1
-1.1
CCCN1CCC(c2nc3ccc(NCc4cccnc4)cn3n2)CC1
-121
Cc1nn(-c2ccccc2)cc1C(=O)N1CCCC(n2cccn2)C1 (stereo not given)
1.3
COc1ccc(CC(=O)NC2CCc3nc(C)cn3C2)cc1 (stereo not given)
9.55
Cn1ccnc1CN1CCN(CC(O)c2ccc(F)cc2)CC1 (stereo not given)
-21.8
CCn1c(CN2CCCC2)nnc1C1CCN(Cc2ccncc2)CC1
-0.384
O=C1CC(c2ccc(F)cc2)Cc2[nH]c(=O)c(C(=O)O)cc21 (stereo not given)
-3.65
CCC(CO)N(Cc1ccsc1)Cc1c(C)nn(C)c1Cl (stereo not given)
17.8
CN(Cc1ccccn1)C1CC2(CCN(Cc3ccccn3)CC2)C1
-87
O=C(c1ccc2c(c1)OCO2)N1CCN(c2cnccn2)CC1
-7.1
Cc1nc(CN(C)Cc2nc(-c3ccncc3)no2)co1
-0.187
Cn1nnnc1SCc1cc2c(cc1Cl)OCO2
1.14

====

Assay: Toxicity liver stage against HepG2, at 10uM
Format: cell-based
Parameters: test concentration 10 uM, cell line HepG2-A16-CD81EGFP
Settings: human, HepG2-A16-CD81EGFP cells; read-out: INHIBITION
Listed below: cytotoxicity at 10 µM values for each entry.
REPORTED_METRIC: cytotoxicity at 10 µM (%)

O=C(NCCN1CCOCC1)c1scnc1Cl
-2.09
O=C(O)c1ccnc(-c2ccnc(NCCc3nc4c(s3)CCC4)n2)c1
-4.23
Cc1ccc(C2CN(C(=O)NCc3nnc4ccccn34)CCO2)o1 (centres undefined)
5.62
O=S1(=O)CCC(n2nc(COc3ccccc3)nc2-c2cnccn2)C1 (centres undefined)
-4.64
CNC(=O)C1(Cc2cc(C(C)C)no2)CCN(Cc2cccnc2)C1 (centres undefined)
4.61
CN(C)Cc1nc(C(C)(C)NC(=O)c2ccnn2C)no1
0.966
CCCC(=O)NCC(=O)Nc1cc(F)ccc1SCC(F)F
10.8
CN1CCN(C(=O)c2cc(C#N)cn2C)c2ccccc2C1
5.45
O=C(c1cccnc1)N1CCCC1c1nc(O)cc(-c2ccccn2)n1 (centres undefined)
-5.91
CCOC(=O)CC1CCCCN1C(=O)c1cccc2ccnn12 (centres undefined)
-105
O=C(c1cc[nH]n1)N1CCc2ncnc(NCc3ccccn3)c2CC1
-10.5
CC(C)c1noc(-c2ccc(NCC3CCCOC3)nc2)n1 (centres undefined)
-2.26
Cn1ccc(C(=O)N2CCCCC2c2cc(CCO)[nH]n2)n1 (centres undefined)
-0.01
COCCN1CCN(Cc2cccc(C(=O)N(C)C)c2)CC1C (centres undefined)
5
CC(=O)Nc1ncc(S(=O)(=O)Nc2ccc3c(c2)OCCO3)s1
2.93
CNS(=O)(=O)CC(=O)N1CCC(c2cc3ccccc3[nH]2)CC1
3.12
CN(C)CC(=O)N1CCC2(CC1)COC(COc1ccccn1)C2 (centres undefined)
-3.14
Cc1nccn1Cc1cccc(CNC(=O)c2ccn(C)c(=O)c2)c1
5.82
COc1ccc(C(=O)NCCc2nnc3ccccn23)c(OC)c1
9.6
CC(C)NC(=O)[C@@H]1C[C@@H](N)CN1C(=O)c1cc2c([nH]c1=O)CCCC2
-0.869
Cn1c(C(=O)NS(C)(=O)=O)ccc1-c1ccccc1
-6.85
Cc1ccc(-c2noc(CC[C@@H]3CCCN4CCCC[C@H]34)n2)nn1
-4.56
Cc1ccc(C(=O)N2CCCC(Nc3ccc(F)cc3)C2)cc1 (centres undefined)
-3.53
CCn1ccc2cc(NC(=O)CC3CCCO3)ccc21 (centres undefined)
2.5
O=C(c1cnccn1)N1CCN(CC2CC2)c2ncccc2C1
-3.99
Cc1sc(CN)nc1-c1ccc(Cl)cc1
-3.07
CCN(CC1CN(CC2CCC2)CCO1)c1cccnn1 (centres undefined)
2.82
CCN(Cc1ccco1)C(=O)NCC(C)N1CCc2sccc2C1 (centres undefined)
9.08
Cc1cc(C(=O)N(C)C)c2c(Br)cccc2n1
-6.4
OC(COc1ccccc1)CN1CCN(c2nccs2)CC1 (centres undefined)
13.1
N#CC(NC(=O)CC1CCSCC1)c1cnn(-c2ccccc2)c1 (centres undefined)
6.1
CN(C)S(=O)(=O)N1CCC2(CC1)CC(OCC1CC1)CO2 (centres undefined)
-2.37
NS(=O)(=O)c1cccnc1Nc1cccc(Cl)c1Cl
-2.19
CCN(C(C)c1cccc(O)c1)S(=O)(=O)c1cccnc1 (centres undefined)
10.8
COc1cc2[nH]c(=O)c(CN3CCCC(CO)C3)cc2c(OC)c1OC (centres undefined)
-11.7
CCn1cnnc1C1CCN(C(=O)c2ccc(Cl)s2)CC1
-12.2
O=C(c1cccnc1)N1CCC2(CC1)CNc1c(F)cccc12
-1.02
Cc1sc2nc(C(F)(F)F)nc(N3CCN(C)CC3)c2c1C
-3.47
CS(=O)(=O)Cc1cc(Cl)c2c(c1)OCCCO2
-2.55
CCCC(Nc1nc(COCC)nc2c1CCNCC2)c1nccn1C (centres undefined)
-10.3
Cn1cc(C(=O)NCc2cncc3c2CCNC3)cn1
-91.6
COc1ccc(-n2nc(C)c(C(C)=O)c2C)cc1C(N)=O
-3.41
Cc1cccc(=O)n1CCCNc1ncnc2c1CCNCC2
-9.53
Cn1ccnc1CN1CCN(CC(O)c2ccc(F)c(F)c2)CC1 (centres undefined)
-12.9
COCCN(Cc1ccoc1)S(=O)(=O)c1cccc(C(F)(F)F)c1
3.17
Cc1ccc(C(=O)N2CCN(C(=O)NC(C)Cn3ccnc3)CC2)o1 (centres undefined)
-1.47
COc1ccc(CN(C)[C@@H]2CN(C(=O)c3ccccc3)C[C@H]2O)cc1
-2.64
CC(C)C(NC(=O)NCC1(CO)CC1)c1nnc2n1CCC2 (centres undefined)
-6.11
COc1ccc(Cl)cc1CN(CC(N)=O)C(C)C
1.49
